Values were extracted from patent US20240262919A1.

MEASURED ON: T1, human IL-18Rβ ECD Fc fusion (118-AP-100, R&D Systems) (human, UniProt O95256 20-356)
T1 construct: Bought protein; also called hIL-18Rβ; recombinant human IL-18Rb; not shown: Fc tag of the bought fusion protein, not described
T1 sequence: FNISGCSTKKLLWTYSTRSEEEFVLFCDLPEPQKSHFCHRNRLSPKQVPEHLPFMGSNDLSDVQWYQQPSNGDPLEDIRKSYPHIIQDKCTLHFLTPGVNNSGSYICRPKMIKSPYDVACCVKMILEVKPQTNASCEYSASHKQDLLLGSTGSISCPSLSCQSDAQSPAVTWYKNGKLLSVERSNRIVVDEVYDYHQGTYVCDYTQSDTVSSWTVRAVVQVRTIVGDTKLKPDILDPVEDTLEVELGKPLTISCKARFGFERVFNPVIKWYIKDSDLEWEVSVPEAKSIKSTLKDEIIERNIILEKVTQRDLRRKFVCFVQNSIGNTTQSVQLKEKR
METHOD: ELISA on recombinant human IL-18Rβ, normalised OD 450 nm, Fab with PBS or with saturating IgG 3131 [top plot]
RESULT TYPE: binding result

Known results for binders:
3131 AM2-4 (Fab, V domains shown, Fab) VH: EVQLVESGGGLVQPGGSLRLSCAASGFNLYYSSMHWVRQAPGKGLEWVASIYSSSGSTCYADSVKGRFTISADTSKNTAYLQMNSLRAEDTAVYYCARSSFSHGYGWYGLDYWGQGTLVTVSS VL: DIQMTQSPSSLSASVGDRVTITCRASQSVSSAVAWYQQKPGKAPKLLIYSASSLYSGVPSRFSGSRSGTDFTLTISSLQPEDFATYYCQQYGYHYAGLITFGQGTKVEIK; binds
3131 AM2-1 (Fab, V domains shown, Fab) VH: EVQLVESGGGLVQPGGSLRLSCAASGFNLYYSSMHWVRQAPGKGLEWVASIYSSYGYTYYADSVKGRFTISADTSKNTAYLQMNSLRAEDTAVYYCARSSFSHGYGWYGLDYWGQGTLVTVSS VL: DIQMTQSPSSLSASVGDRVTITCRASQSVSSAVAWYQQKPGKAPKLLIYSASSLYSGVPSRFSGSRSGTDFTLTISSLQPEDFATYYCQQYGYHHAGLITFGQGTKVEIK; binds
3131 AM2-14 (Fab, V domains shown, Fab) VH: EVQLVESGGGLVQPGGSLRLSCAASGFNLYYSSMHWVRQAPGKGLEWVASIYSSYGYTYYADSVKGRFTISADTSKNTAYLQMNSLRAEDTAVYYCARSSFSHGYGWYGLDYWGQGTLVTVSS VL: DIQMTQSPSSLSASVGDRVTITCRASQSVSSAVAWYQQKPGKAPKLLIYSASSLYSGVPSRFSGSRSGTDFTLTISSLQPEDFATYYCQQYGYHGAGLITFGQGTKVEIK; binds
3131 AM2-9 (Fab, V domains shown, Fab) VH: EVQLVESGGGLVQPGGSLRLSCAASGFNLYYSSMHWVRQAPGKGLEWVASIYSSYGYTYYADSVKGRFTISADTSKNTAYLQMNSLRAEDTAVYYCARSSFSHGYGWYGLDYWGQGTLVTVSS VL: DIQMTQSPSSLSASVGDRVTITCRASQSVSSAVAWYQQKPGKAPKLLIYSASSLYSGVPSRFSGSRSGTDFTLTISSLQPEDFATYYCQQYGYHNAGLITFGQGTKVEIK; binds

Please list binding result recorded for the binder 3131 AM2-3 (Fab, V domains shown, Fab) VH: EVQLVESGGGLVQPGGSLRLSCAASGFNLYYSSMHWVRQAPGKGLEWVASIYSSSGYTSYADSVKGRFTISADTSKNTAYLQMNSLRAEDTAVYYCARSSFSHGYGWYGLDYWGQGTLVTVSS VL: DIQMTQSPSSLSASVGDRVTITCRASQSVSSAVAWYQQKPGKAPKLLIYSASSLYSGVPSRFSGSRSGTDFTLTISSLQPEDFATYYCQQYGYHYAGLITFGQGTKVEIK
binds

Report binding result, nothing else, for this binder: 3131 AM2-2 (Fab, V domains shown, Fab) VH: EVQLVESGGGLVQPGGSLRLSCAASGFNLYYSSMHWVRQAPGKGLEWVASIYSSHGRTGYADSVKGRFTISADTSKNTAYLQMNSLRAEDTAVYYCARSSFSHGYGWYGLDYWGQGTLVTVSS VL: DIQMTQSPSSLSASVGDRVTITCRASQSVSSAVAWYQQKPGKAPKLLIYSASSRDSGVPSRFSGSRSGTDFTLTISSLQPEDFATYYCQQYGYHYAGLITFGQGTKVEIK
binds

Please report binding result for the following binder: 3131 AM2-6 (Fab, V domains shown, Fab) VH: EVQLVESGGGLVQPGGSLRLSCAASGFNLYYSSMHWVRQAPGKGLEWVASIYSSHGGTNYADSVKGRFTISADTSKNTAYLQMNSLRAEDTAVYYCARSSFSHGYGWYGLDYWGQGTLVTVSS VL: DIQMTQSPSSLSASVGDRVTITCRASQSVSSAVAWYQQKPGKAPKLLIYSASSLYSGVPSRFSGSRSGTDFTLTISSLQPEDFATYYCQQYGYHYAGLITFGQGTKVEIK
binds
